Where these numbers come from: patent US10919885B2

- ASSAYED SYSTEM: human SCD1 (Homo sapiens (Human))
- ASSAY INFO: Yeast growth assay, strain expressing human SCD1 as the sole desaturase (reduced growth as surrogate for SCD inhibition)
- EXPERIMENTAL SETUP: yeast with OLE1 deleted expressing human SCD1 from a plasmid; growth read as OD600 after 40 h at 30° C.; top drug concentration 33.3 μM
pIC50: −log10 of the molar value.
VALUE KIND: pIC50

// worked examples, pIC50 included
O=C(Nc1cnn(Cc2cccc(F)c2)c1)c1cc(N2CCCCC2)on1	7.44
O=C(Nc1cnn(Cc2ccccc2)c1)c1cc(-c2ncccc2F)on1	5.33

1 = O=C(Nc1cnn(Cc2ccccc2)c1)c1cc(-c2ccns2)on1
2 = O=C(Nc1cnn(Cc2cccc(F)c2)c1)c1noc2c1CCCC2
Select the item whose pIC50 value is smaller, choosing between 1 and 2 . Your answer should be the label attached to the chosen record. 1

----------
- ASSAYED SYSTEM: human SCD1 (Homo sapiens (Human), UniProt O00767)
- Sequence (O00767 whole entry): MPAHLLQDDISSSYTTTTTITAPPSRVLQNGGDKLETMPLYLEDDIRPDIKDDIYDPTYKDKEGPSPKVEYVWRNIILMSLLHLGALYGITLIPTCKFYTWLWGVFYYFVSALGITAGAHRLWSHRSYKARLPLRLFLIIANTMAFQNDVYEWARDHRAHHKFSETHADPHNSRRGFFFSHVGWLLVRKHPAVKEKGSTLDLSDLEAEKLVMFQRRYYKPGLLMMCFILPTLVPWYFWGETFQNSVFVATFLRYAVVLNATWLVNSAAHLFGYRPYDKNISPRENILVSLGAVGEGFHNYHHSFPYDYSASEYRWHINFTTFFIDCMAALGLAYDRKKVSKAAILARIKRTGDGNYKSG
- ASSAY INFO: Yeast growth assay, strain expressing human SCD1 as the sole desaturase (reduced growth as surrogate for SCD inhibition)
- EXPERIMENTAL SETUP: yeast with OLE1 deleted expressing human SCD1 from a plasmid; growth read as OD600 after 40 h at 30° C.; top drug concentration 33.3 μM
pIC50: −log10 of the molar value.
The entries below come with measured pIC50 values attached.

# count of solved cases: 4
CCOC(=O)c1cc(C(=O)Nc2cnn(Cc3ccccc3)c2)on1	< 4.35
O=C(Nc1cnn(Cc2cc(F)ccc2C(F)(F)F)c1)c1cc(-c2ccccn2)on1	< 4.35
O=C(c1cc(-c2ccc3c(c2)OCO3)on1)N1CCCC1C1CC1 (centres unmarked)	< 4.35
CNC(=O)c1ccc(-c2cc(C(=O)N3CC(c4ccccc4)C3)no2)cc1	< 4.35

In the following, a different compound is considered.
Give the reported pIC50 for "O=C(c1cc(-c2ccc3c(c2)OCO3)on1)N1CCCc2ccccc21" (system: human SCD1 (Homo sapiens (Human), UniProt O00767)). < 4.35

----------
- ASSAYED SYSTEM: human SCD5 (Homo sapiens (Human))
- ASSAY INFO: Yeast growth assay, strain expressing human SCD5 as the sole desaturase (reduced growth as surrogate for SCD inhibition)
- EXPERIMENTAL SETUP: yeast with OLE1 deleted expressing human SCD5 from a plasmid; growth read as OD600 after 40 h at 30° C.; top drug concentration 33.3 μM
VALUE KIND: IC50

Cn1cc2ccc(-c3cc(C(=O)N4CC(c5ccccc5)C4)no3)cc2n1 [Compound 235]	5.16 µM

Could you share which IC50 value was measured for O=C(c1cc(-c2ccc3c(c2)OCO3)on1)N1C[C@H](O)C[C@H]1c1ccccc1 [Compound 422] ? > 45 µM

IC50 lookup needed for COc1cc(C2CCCN2C(=O)c2cc(-c3ccc4c(c3)OCO4)on2)on1 (stereo not shown) [Compound 411] , thanks. > 45 µM

Need IC50 of Cc1ncc(-c2cc(C(=O)Nc3cnn(Cc4ccccc4)c3)no2)s1 [Compound 133] , thanks. > 45 µM

----------
- ASSAYED SYSTEM: human SCD1 (Homo sapiens (Human), UniProt O00767)
- ASSAY INFO: Yeast growth assay, strain expressing human SCD1 as the sole desaturase (reduced growth as surrogate for SCD inhibition)
- Format: cell-based
- EXPERIMENTAL SETUP: yeast with OLE1 deleted expressing human SCD1 from a plasmid; growth read as OD600 after 40 h at 30° C.; top drug concentration 33.3 μM
Below, each of the compounds is paired with its reported IC50 value.

Reference set, count: 2
O=C(Nc1cnn(Cc2ccccc2Cl)c1)c1cc(-c2ccco2)on1	> 45 µM
N#Cc1ccc(-c2cc(C(=O)N3CCC(c4ccccc4)CC3)no2)c(F)c1	0.16 µM

Report IC50 for Cc1cc(C2CCCN2C(=O)c2cc(-c3ccc4c(c3)OCO4)on2)on1 (centres unmarked) please. > 45 µM

Consider the compound O=C(Nc1ccccc1)C1CCCN1C(=O)c1cc(-c2ccc3c(c2)OCO3)on1 (centres unmarked) and give its measured IC50. > 45 µM

Looking for the measured IC50 of "O=C(c1cc(-c2ccccn2)on1)N1CCC[C@H]1c1ccccc1" , can you help? > 45 µM

----------
Measured IC50 by item
- ASSAYED SYSTEM: human SCD1 (Homo sapiens (Human))
- ASSAY INFO: Yeast growth assay, strain expressing human SCD1 as the sole desaturase (reduced growth as surrogate for SCD inhibition)
- EXPERIMENTAL SETUP: yeast with OLE1 deleted expressing human SCD1 from a plasmid; growth read as OD600 after 40 h at 30° C.; top drug concentration 33.3 μM
- Method: Strains expressing SCD1 or SCD5 as the sole desaturase, the human SCD1 and SCD5 genes were used to evaluate inhibition of SCD1/SCD5 using reduced growth as a surrogate for SCD inhibition. […] After yeast delivery, assay plates were incubated under humidified conditions at 30° C. for 40 h. Yeast growth was monitored by reading the OD600 of each well using a microplate reader (Perkin Elmer EnVision™).

Worked cases, answers included:
O=C(c1cc(-c2ccc3c(c2)OCO3)on1)N1CCCC1c1ccnc(Br)c1F (stereo not drawn)	> 45 µM
N#Cc1cccc(-c2cc(C(=O)N3CCC[C@H]3c3ccccc3)no2)c1	31.1 µM

Which IC50 is listed for "O=C(Nc1cnn(Cc2ccccc2)c1)c1cc(-c2nncs2)on1" ? 0.131 µM

// IC50 lookup, key: "Cc1ncc(-c2cc(C(=O)Nc3cnn(Cc4cccc(F)c4)c3)no2)o1" 0.99 µM

Which measured IC50 value corresponds to O=C(c1cc(-c2ccc3c(c2)OCO3)on1)N1CCC1c1cccc(F)c1 (stereo not drawn) ? > 45 µM

Reported IC50, molecule O=C(c1cc(-c2ccccc2)on1)N1CCC(c2ccc(F)cc2)C1 (stereo not drawn) : ____ > 45 µM

# lookup: IC50 of COc1ccc(C2CCCN2C(=O)c2cc(-c3ccc4c(c3)OCO4)on2)c(F)c1 (stereo not drawn) > 45 µM

Recorded IC50 of Cc1cnoc1C1CCCN1C(=O)c1cc(-c2ccc3c(c2)OCO3)on1 (stereo not drawn) , please. > 45 µM

Please report the recorded IC50 for "Cc1c(NC(=O)c2cc(-c3ccco3)on2)cnn1Cc1ccc(Cl)c(Cl)c1" . > 45 µM

----------
- ASSAYED SYSTEM: human SCD5 (Homo sapiens (Human))
- ASSAY INFO: Yeast growth assay, strain expressing human SCD5 as the sole desaturase (reduced growth as surrogate for SCD inhibition)
- EXPERIMENTAL SETUP: yeast with OLE1 deleted expressing human SCD5 from a plasmid; growth read as OD600 after 40 h at 30° C.; top drug concentration 33.3 μM
VALUE KIND: IC50

COc1cc(F)ccc1C1CCCN1C(=O)c1cc(-c2ccc3c(c2)OCO3)on1 (stereo not drawn)	30 µM
COc1ccccc1-c1cc(C(=O)N2CCC(c3ccccc3)CC2)no1	> 45 µM
COc1ccccc1-c1cc(C(=O)Nc2cnn(Cc3ccccc3)c2)no1	> 45 µM
O=C(c1cc(-c2cnccn2)on1)N1CC(c2ccccc2)C1	5 µM
O=C(c1cc(-c2ccc3nccnc3c2)on1)N1CCC[C@H]1c1ccccc1	> 45 µM

Consider the record given below.
What does the record list as IC50 for "O=C(c1cc(-c2ccn3ncnc3c2)on1)N1CCC[C@H]1c1ccccc1" ? > 45 µM

----------
- ASSAYED SYSTEM: human SCD1 (Homo sapiens (Human))
- ASSAY INFO: Yeast growth assay, strain expressing human SCD1 as the sole desaturase (reduced growth as surrogate for SCD inhibition)
- EXPERIMENTAL SETUP: yeast with OLE1 deleted expressing human SCD1 from a plasmid; growth read as OD600 after 40 h at 30° C.; top drug concentration 33.3 μM
pIC50: −log10 of the molar value.
VALUE KIND: pIC50

Worked cases, pIC50 given:
O=C(c1cc(-c2ccccn2)on1)N(Cc1ccc(F)c(F)c1)c1cnn(Cc2ccc(F)c(F)c2)c1 [Compound 62]	< 4.35
O=C(c1cc(-c2ccc3c(c2)OCO3)on1)N1CCC(c2cccc(F)c2)CC1 [Compound 309]	< 4.35
O=C(c1cc(-c2ccc3c(c2)OCO3)on1)N1CCCC1c1ncccn1 (stereo not shown) [Compound 431]	< 4.35

We next turn to a different compound, shown below.
Give the measured pIC50 of CC(C)(C)OC(=O)n1cc(NC(=O)c2cc(-c3ccccc3)on2)cn1 [Compound 35] . 5.49

----------
List of pIC50 values.
- ASSAYED SYSTEM: human SCD5 (Homo sapiens (Human), UniProt Q86SK9)
- Sequence (Q86SK9 whole entry): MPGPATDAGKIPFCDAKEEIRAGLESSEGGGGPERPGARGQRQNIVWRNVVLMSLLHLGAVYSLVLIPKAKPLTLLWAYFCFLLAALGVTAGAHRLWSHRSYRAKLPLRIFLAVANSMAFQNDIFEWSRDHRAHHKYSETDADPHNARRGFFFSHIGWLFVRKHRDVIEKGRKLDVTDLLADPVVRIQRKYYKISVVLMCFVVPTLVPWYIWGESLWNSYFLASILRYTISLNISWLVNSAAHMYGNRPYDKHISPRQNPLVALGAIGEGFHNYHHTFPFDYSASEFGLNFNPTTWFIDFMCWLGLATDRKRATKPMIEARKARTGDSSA
- ASSAY INFO: Yeast growth assay, strain expressing human SCD5 as the sole desaturase (reduced growth as surrogate for SCD inhibition)
- EXPERIMENTAL SETUP: yeast with OLE1 deleted expressing human SCD5 from a plasmid; growth read as OD600 after 40 h at 30° C.; top drug concentration 33.3 μM
- Description: Strains expressing SCD1 or SCD5 as the sole desaturase, the human SCD1 and SCD5 genes were used to evaluate inhibition of SCD1/SCD5 using reduced growth as a surrogate for SCD inhibition. […] After yeast delivery, assay plates were incubated under humidified conditions at 30° C. for 40 h. Yeast growth was monitored by reading the OD600 of each well using a microplate reader (Perkin Elmer EnVision™).
pIC50: −log10 of the molar value.

For orientation, consider the following solved cases.
O=C(c1cc(-c2ccc3c(c2)OCO3)on1)N1CC2(C1)CC(O)(c1ccccc1)C2	6.02
Cc1cc(C2CCCN2C(=O)c2cc(-c3ccc4c(c3)OCO4)on2)on1 (centres unmarked)	< 4.35
N#Cc1nn(Cc2ccccc2)cc1NC(=O)c1cc(-c2ccccc2)on1	< 4.35
N#Cc1ccc(-c2cc(C(=O)Nc3cnn(Cc4ccccc4)c3)no2)cc1	< 4.35
O=C(c1ccccc1)N1CCN(C(=O)c2cc(-c3ccc4c(c3)OCO4)on2)CC1	< 4.35
O=C(c1cc(-c2ccccc2C(F)(F)F)on1)N1CCC(c2ccccc2)C1 (centres unmarked)	5.13
O=C(Nc1ccnc(Oc2ccccc2)c1)c1cc(-c2ccccc2)on1	< 4.35

Continue with the compound presented below.
# lookup: pIC50 of "O=C(Nc1cnn(Cc2cccc(F)c2)c1)c1cc(-c2nncs2)on1" < 4.35
